All values here come from patent US20230382925A1.

biological target: UniProt:P13569; test: Membrane Potential Dye, Enteroid Assay B; format: cell-based; conditions: Table 10
quantity_name: Ent. B Max Activity (%)

>>> observed("[H][C@]1(N2C(=O)c3cccc(c3)S(=O)(=O)Nc3nc(cc(-c4c(C)cccc4C)n3)OC[C@H]2CC(C)(C)C)C[C@@]2(C[C@H](C(=O)N(C)C)C2)C1 (single isomer, unassigned) [Compound 115]")
"+++ (+++ is >60%)"
>>> observed("Cc1cccc(C)c1-c1cc2nc(n1)NS(=O)(=O)c1cccc(c1)C(=O)N(C1CC(C)(OC(F)(F)F)C1)[C@H](CC(C)(C)C)CO2 (single isomer, unassigned) [Compound 157]")
"++ (++ is 30-60%)"
>>> observed("COC(=O)N(C)[C@]1(C)C[C@H](N2C(=O)c3cccc(c3)S(=O)(=O)Nc3nc(cc(-c4c(C)cccc4C)n3)OC[C@H]2CC(C)(C)C)C1 (single isomer, unassigned) [Compound 173]")
"++ (++ is 30-60%)"
>>> observed("COCCn1cc(N2C(=O)c3cccc(c3)S(=O)(=O)Nc3nc(cc(-c4c(C)cccc4C)n3)OC[C@H]2CCC(C)C)cn1 [Compound 6]")
"+++ (+++ is >60%)"
>>> observed("CCC(=O)N(C)C1CC(N2C(=O)c3cccc(c3)S(=O)(=O)Nc3nc(cc(-c4c(C)cccc4C)n3)OC[C@H]2CC(C)(C)C)C1 (stereo in doubt) [Compound 239]")
"++ (++ is 30-60%)"

Query for UniProt:P13569: what Ent. B Max Activity (%) does the record show for COCCNC(=O)O[C@H]1C[C@H](N2C(=O)c3cccc(c3)S(=O)(=O)Nc3nc(cc(-c4c(C)cccc4C)n3)OC[C@H]2CC(C)C)C1 (stereo in doubt) [Compound 364] ? +++ (+++ is >60%)

Query for UniProt:P13569: what Ent. B Max Activity (%) does the record show for Cc1cccc(C)c1-c1cc2nc(n1)NS(=O)(=O)c1cccc(c1)C(=O)N(C1CC3(CCN(C(=O)C(C)C)CC3)C1)[C@H](CC(C)(C)C(F)(F)F)CO2 [Compound 416] ? +++ (+++ is >60%)

Query for UniProt:P13569: what Ent. B Max Activity (%) does the record show for Cc1cccc(C)c1-c1cc2nc(n1)NS(=O)(=O)c1cccc(c1)C(=O)N(C1CC3(CCNC(=O)C3)C1)[C@H](CC(C)C)CO2 (some centres unmarked) [Compound 200] ? ++ (++ is 30-60%)

Query for UniProt:P13569: what Ent. B Max Activity (%) does the record show for Cc1cccc(C)c1-c1cc2nc(n1)NS(=O)(=O)c1cccc(n1)C(=O)N(C1CC3(CC(C(=O)N(C)C)C3)C1)[C@H](CC(C)(C)C)CO2 (some centres unmarked) [Compound 414] ? +++ (+++ is >60%)

Query for UniProt:P13569: what Ent. B Max Activity (%) does the record show for Cc1cccc(C)c1-c1cc2nc(n1)NS(=O)(=O)c1cccc(c1)C(=O)N(C1CC3(C1)CC(C(C)(C)O)C3)[C@H](CC(C)(C)C)CO2 (single isomer, unassigned) [Compound 117] ? +++ (+++ is >60%)

Query for UniProt:P13569: what Ent. B Max Activity (%) does the record show for Cc1cccc(C)c1-c1cc2nc(n1)NS(=O)(=O)c1cccc(c1)C(=O)N([C@H]1C[C@@H](CC(C)(C)O)C1)[C@H](CC(C)(C)C)CO2 (single isomer, unassigned) [Compound 152] ? +++ (+++ is >60%)

---

biological target: CFTR (Homo sapiens, UniProt P13569); assay: Membrane Potential Dye, Enteroid Assay A; format: cell-based
Sequence (P13569 with tags, fused parts or gaps DEL508-508): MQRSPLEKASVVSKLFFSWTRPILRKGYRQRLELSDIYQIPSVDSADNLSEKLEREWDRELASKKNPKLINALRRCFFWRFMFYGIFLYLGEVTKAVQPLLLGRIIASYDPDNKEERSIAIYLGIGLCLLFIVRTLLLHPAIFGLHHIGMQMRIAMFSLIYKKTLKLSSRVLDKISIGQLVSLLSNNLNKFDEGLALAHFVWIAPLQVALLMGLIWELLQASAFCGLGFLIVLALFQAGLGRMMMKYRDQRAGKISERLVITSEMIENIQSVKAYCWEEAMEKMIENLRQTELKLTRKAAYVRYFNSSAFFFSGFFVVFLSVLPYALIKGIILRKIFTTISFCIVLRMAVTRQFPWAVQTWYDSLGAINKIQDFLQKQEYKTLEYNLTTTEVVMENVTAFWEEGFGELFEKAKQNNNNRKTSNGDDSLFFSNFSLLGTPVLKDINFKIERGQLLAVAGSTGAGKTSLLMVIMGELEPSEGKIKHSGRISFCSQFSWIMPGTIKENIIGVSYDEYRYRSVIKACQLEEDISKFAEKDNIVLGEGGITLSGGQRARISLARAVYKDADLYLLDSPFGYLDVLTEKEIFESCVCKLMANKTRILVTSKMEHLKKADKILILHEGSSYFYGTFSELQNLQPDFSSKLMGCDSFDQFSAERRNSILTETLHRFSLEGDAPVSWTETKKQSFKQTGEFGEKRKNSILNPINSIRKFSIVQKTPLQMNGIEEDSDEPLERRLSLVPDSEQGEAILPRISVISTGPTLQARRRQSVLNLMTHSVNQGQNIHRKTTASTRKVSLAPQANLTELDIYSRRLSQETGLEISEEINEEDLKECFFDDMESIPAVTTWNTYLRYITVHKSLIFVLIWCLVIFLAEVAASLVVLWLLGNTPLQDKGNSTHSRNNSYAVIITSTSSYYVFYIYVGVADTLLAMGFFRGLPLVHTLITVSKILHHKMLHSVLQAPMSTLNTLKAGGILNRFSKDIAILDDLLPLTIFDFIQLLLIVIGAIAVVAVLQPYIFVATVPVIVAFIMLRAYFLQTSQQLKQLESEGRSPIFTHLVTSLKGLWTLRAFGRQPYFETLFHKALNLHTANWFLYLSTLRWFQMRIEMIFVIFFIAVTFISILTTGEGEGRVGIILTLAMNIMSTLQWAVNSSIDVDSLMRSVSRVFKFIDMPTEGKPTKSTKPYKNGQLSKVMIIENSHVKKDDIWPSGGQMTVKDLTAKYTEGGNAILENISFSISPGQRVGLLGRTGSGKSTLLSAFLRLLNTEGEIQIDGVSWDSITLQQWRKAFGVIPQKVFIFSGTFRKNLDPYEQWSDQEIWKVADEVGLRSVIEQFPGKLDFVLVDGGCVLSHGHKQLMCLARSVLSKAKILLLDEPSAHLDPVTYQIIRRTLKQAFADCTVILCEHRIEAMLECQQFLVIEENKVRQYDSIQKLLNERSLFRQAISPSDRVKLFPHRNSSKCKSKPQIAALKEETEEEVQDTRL
quantity_name: Ent. A Max Activity (%)

Before answering, review these 5 worked examples.
>>> observed("Cc1cccc(C)c1-c1cc2nc(n1)NS(=O)(=O)c1cccc(c1)C(=O)N(C1CC3(CCCCC3)C1)[C@H](CC(C)C)CO2")
"++ (++ is 30-60%)"
>>> observed("COC(=O)N1CCCC2(CC(N3C(=O)c4cccc(c4)S(=O)(=O)Nc4nc(cc(-c5c(C)cccc5C)n4)OC[C@H]3CC(C)C)C2)C1 (some centres unmarked) [Compound 327]")
"+++ (+++ is >60%)"
>>> observed("CNC(=O)[C@H]1CC2(C1)C[C@H](N1C(=O)c3cccc(c3)S(=O)(=O)Nc3nc(cc(-c4c(C)cccc4C)n3)OC[C@H]1CC(C)C)C2 (stereo in doubt) [Compound 346]")
"+++ (+++ is >60%)"
>>> observed("Cc1cccc(C)c1-c1cc2nc(n1)NS(=O)(=O)c1cccc(c1)C(=O)N([C@H]1CC3(C[C@H](N(C)C)C3)C1)[C@H](CC(C)C)CO2 (some centres unmarked) [Compound 313]")
"+++ (+++ is >60%)"
>>> observed("Cc1cccc(C)c1-c1cc2nc(n1)NS(=O)(=O)c1cccc(c1)C(=O)N(C1CC3(CCN(CCC(F)(F)F)CC3)C1)[C@H](CC(C)C)CO2")
"+++ (+++ is >60%)"

Dear colleague, I am looking for the recorded Ent. A Max Activity (%) of the following compound: `Cc1cccc(C)c1-c1cc2nc(n1)NS(=O)(=O)c1cccc(c1)C(=O)N([C@H]1C[C@]3(CCCN(C)C3)C1)[C@H](CC(C)C)CO2` +++ (+++ is >60%)

Dear colleague, I am looking for the recorded Ent. A Max Activity (%) of the following compound: Cc1cccc(C)c1-c1cc2nc(n1)NS(=O)(=O)c1cccc(c1)C(=O)N(C1CC3(CCN(C)CC3)C1)C(CC1(C(F)(F)F)CC1)CO2 (single isomer, unassigned) [Compound 137] +++ (+++ is >60%)

Dear colleague, I am looking for the recorded Ent. A Max Activity (%) of the following compound: `Cc1cccc(C)c1-c1cc2nc(n1)NS(=O)(=O)c1cccc(c1)C(=O)N(C1CN(C(=O)OCc3ccccc3)C1)[C@H](CC(C)C)CO2` +++ (+++ is >60%)

---

target: UniProtKB P13569; experiment: Membrane Potential Dye, Enteroid Assay B; assay type: cell-based; settings: Table 10, read-out: Ent. B EC50
quantity_name: EC50

Before answering, review these 2 worked examples.
>>> observed("Cc1cccc(C)c1-c1cc2nc(n1)NS(=O)(=O)c1cccc(c1)C(=O)N(C1CC3(COC(=O)N3C)C1)[C@H](CC(C)(C)C)CO2 (single isomer, unassigned) [Compound 174]")
"< 1 µM"
>>> observed("CCC(=O)NC1(C)CC(N2C(=O)c3cccc(c3)S(=O)(=O)Nc3nc(cc(-c4c(C)cccc4C)n3)OCC2CC(C)(C)C)C1 (stereo not drawn)")
"< 1 µM"

Lab note: next molecule to report on.
Dear colleague, I am looking for the recorded EC50 of the following molecule: `Cc1cccc(C)c1-c1cc2nc(n1)NS(=O)(=O)c1cccc(c1)C(=O)N(C1CC3(C1)CC(CO)(CO)C3)[C@H](CC(C)(C)C)CO2` < 1 µM

---

target: CFTR (Homo sapiens, UniProt P13569, DEL508-508); construct: human bronchial epithelial (HBE) cells derived from CF subjects heterozygous for F508del; endogenous in cells; host or cells: primary human bronchial epithelial cells from CF subjects (F508del/MF-HBE); experiment: HBE assay: Ussing chamber assay of CFTR-mediated short-circuit currents (F508del/MF-HBE, with 1 μM Ivacaftor); assay type: cell-based; details: F508del/MF-HBE cells; single fixed concentration of 10 μM with 1 μM Ivacaftor, 18-24 hours, 20% human serum
Sequence (P13569 with tags, fused parts or gaps DEL508-508): as above
quantity_name: HBE Activity at 10 μM

>>> observed("Cc1cccc(CO)c1-c1cc2nc(n1)NS(=O)(=O)c1cccc(c1)C(=O)N([C@H]1CC3(C[C@H](NC(=O)OC(C)C)C3)C1)[C@H](CC(C)(C)C)CO2 (stereo in doubt) [Compound 403]")
"++ (++ is 30-60%)"
>>> observed("Cc1cccc(C)c1-c1cc2nc(n1)NS(=O)(=O)c1cccc(c1)C(=O)N([C@H]1CC3(C[C@H](N(C)CCC(F)(F)F)C3)C1)[C@H](CC1(C(F)(F)F)CC1)CO2 (stereo in doubt)")
"+++ (+++ is >60%)"
>>> observed("Cc1cccc(C)c1-c1cc2nc(n1)NS(=O)(=O)c1cccc(c1)C(=O)N(C1CC3(CCN(C)CC3)C1)[C@@H]1CN(C3CC4(CCCCC4)C3)C[C@H]1O2 (some centres unmarked)")
"+++ (+++ is >60%)"
>>> observed("Cc1cccc(CO)c1-c1cc2nc(n1)NS(=O)(=O)c1cccc(c1)C(=O)N([C@H]1CC3(C[C@H](NC(=O)OC(C)C)C3)C1)[C@H](CC(C)(C)C)CO2 (stereo in doubt) [Compound 402]")
"++ (++ is 30-60%)"
>>> observed("Cc1cccc(C)c1-c1cc2nc(n1)NS(=O)(=O)c1cccc(c1)C(=O)N(C1CC3(CCCCN3C(=O)CO)C1)[C@H](CC(C)(C)C)CO2 (stereo in doubt) [Compound 203]")
"+++ (+++ is >60%)"
>>> observed("Cc1cccc(CO)c1-c1cc2nc(n1)NS(=O)(=O)c1cccc(c1)C(=O)N(C1CC3(CC(NC(=O)OC(C)C)C3)C1)[C@H](CC(C)(C)C)CO2 (some centres unmarked)")
"++ (++ is 30-60%)"
>>> observed("Cc1cccc(C)c1-c1cc2nc(n1)NS(=O)(=O)c1cccc(c1)C(=O)N(C1CC3(CCCCN3C(=O)CO)C1)[C@H](CC(C)(C)C)CO2 (stereo in doubt) [Compound 204]")
"+++ (+++ is >60%)"

Dear colleague, I am looking for the recorded HBE Activity at 10 μM of the following molecule: Cc1cccc(C)c1-c1cc2nc(n1)NS(=O)(=O)c1cccc(c1)C(=O)N(C1CC(N3C[C@@H](C)O[C@@H](C)C3)C1)[C@H](CC(C)(C)C)CO2 (stereo in doubt) +++ (+++ is >60%)
